All figures here come from paper PMC12495306.

Reported Cytotoxicity LD50 is given for each of the following molecules.
test system: HEK293 cells; experiment: Cell viability / cytotoxicity assay; format: cell-based, human; conditions: CellTiter-Glo, 18 h
Response body: numeric value in µM, unit text excluded.

MOLECULE	Cytotoxicity LD50, µM
CC1N=C(c2ccccc2F)c2cc(Nc3ccc(Cl)cc3)ccc2NC1=O (centres unmarked) [Compound 5]	87

Query string: State its Cytotoxicity LD50 for this molecule: CC1N=C(c2ccccc2F)c2cc(Nc3ccccc3F)ccc2NC1=O (centres unmarked) [Compound 14]
Result string: 90

Query string: Tell me measured Cytotoxicity LD50 for COc1ccc(Nc2ccc3c(c2)C(c2ccccc2F)=NC(C)C(=O)N3)cc1 (centres unmarked) [Compound 4] please.
Result string: 87
